Hello, the source for this data is patent US11236055B2, in case you need it.

Assay: Comparison of PK in DIO mice and lean mice
Type: in vivo, mouse
Conditions: C57BL/6N, mouse, plasma, po, 10 mg/kg, Non-fasted DIO mice, 10 mg/kg oral
experimental endpoint: Tmax (h)
Your answer is read as h, so omit the unit and give the number.

Data point: Cc1cnccc1-c1cccc(C(C)(C)N(CCCC(=O)NCCS(=O)(=O)O)S(=O)(=O)c2ccccc2C(F)(F)F)c1 [Compound 20AA] ; Tmax = 1

====

Target: mouse TGR5 receptor (Mus musculus)
Construct: expressed in transfected cells; host or cells: HEK293-EBNA (293 c18, ATCC CRL10852), Hygromycin B selection
Sequence (Q80SS6 1-329): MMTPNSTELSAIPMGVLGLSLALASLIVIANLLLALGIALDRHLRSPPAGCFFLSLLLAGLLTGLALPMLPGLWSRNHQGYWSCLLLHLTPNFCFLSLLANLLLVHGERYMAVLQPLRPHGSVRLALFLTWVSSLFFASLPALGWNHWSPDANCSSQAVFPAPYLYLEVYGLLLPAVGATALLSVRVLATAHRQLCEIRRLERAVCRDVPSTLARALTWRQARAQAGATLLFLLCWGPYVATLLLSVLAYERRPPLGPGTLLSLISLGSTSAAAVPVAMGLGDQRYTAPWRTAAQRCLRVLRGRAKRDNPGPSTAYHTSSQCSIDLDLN
Assay: Mouse TGR5 cAMP production assay (HTRF, Cisbio cAMP HiRange)
Type: cell-based
Conditions: HEK293-EBNA cells overexpressing mouse TGR5, HTRF cAMP HiRange; coded A-D
Catalogue of EC50 readings, one per entry.

Data point: Cc1cnccc1-c1cccc([C@H](C)N(CCCCC(=O)NCCS(=O)(=O)NCCC(=O)O)S(=O)(=O)c2ccccc2C(F)(F)F)c1 [Compound 20BM] ; EC50 = < 100 nM

Data point: Cc1cnccc1-c1cccc(C(CCC(=O)O)NS(=O)(=O)c2ccccc2C(F)(F)F)c1 (stereo not shown) ; EC50 = 100 to 999 nM

====

Experiment: Comparison of PK in DIO mice and lean mice
Type: in vivo, mouse
Settings: C57BL/6N, mouse, plasma, po, 10 mg/kg, Lean mice, non-fasted, 10 mpk
experimental endpoint: Cmax (nM)
Your answer is read as nM, so omit the unit and give the number.

Data point: Cc1cnccc1-c1cccc(C(C)(C)N(CCCC(=O)NCCS(=O)(=O)O)S(=O)(=O)c2ccccc2C(F)(F)F)c1 [Compound 20AA] ; Cmax = 3

====

Biological target: human TGR5 receptor (Homo sapiens)
Sequence (Q8TDU6 whole entry): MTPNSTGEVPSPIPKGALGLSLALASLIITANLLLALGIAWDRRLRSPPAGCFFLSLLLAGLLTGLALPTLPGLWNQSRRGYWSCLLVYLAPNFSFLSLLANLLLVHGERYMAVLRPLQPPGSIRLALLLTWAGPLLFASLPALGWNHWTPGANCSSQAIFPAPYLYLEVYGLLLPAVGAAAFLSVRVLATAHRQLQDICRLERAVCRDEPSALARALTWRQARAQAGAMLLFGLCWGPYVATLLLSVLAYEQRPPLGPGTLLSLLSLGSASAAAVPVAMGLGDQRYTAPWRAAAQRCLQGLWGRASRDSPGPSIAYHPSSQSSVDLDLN
Experiment: Human TGR5 cAMP production assay
Details: human TGR5, luminescent cAMP assay; coded A-D; read-out: Human TGR5 Lum. cAMP Activity (EC50)
experimental endpoint: EC50

Observe how each entry below is paired with its result.
{"compound": "CC(=O)Nc1cc(-c2cccc(C(C)(C)NS(=O)(=O)c3cccc(C(F)(F)F)c3)c2)ccn1 [Compound 9]", "EC50": "1000 to 30000 nM"}
{"compound": "COc1cnccc1-c1cccc([C@H](C)NS(=O)(=O)c2cccc(Br)c2)c1 [Compound 2BO]", "EC50": "100 to 999 nM"}
{"compound": "Cc1cc(-c2cccc(CNS(=O)(=O)c3cccc(C(F)(F)F)c3)c2)ncn1 [Compound 1BI]", "EC50": "1000 to 30000 nM"}

Could you now look at the following compound, please?
Record for Cc1cnccc1-c1cccc(C2CNCCN2S(=O)(=O)c2ccccc2C(F)(F)F)c1 (racemic) [Compound 44] under target or system human TGR5 receptor (Homo sapiens): EC50 reported as 100 to 999 nM
